Below: a set of entries, each annotated with reported IC50.
# Target: PDGF-Ra (Homo sapiens)
# Construct: host or cells: G-292 human osteosarcoma cells
# Sequence (P16234 24-1089): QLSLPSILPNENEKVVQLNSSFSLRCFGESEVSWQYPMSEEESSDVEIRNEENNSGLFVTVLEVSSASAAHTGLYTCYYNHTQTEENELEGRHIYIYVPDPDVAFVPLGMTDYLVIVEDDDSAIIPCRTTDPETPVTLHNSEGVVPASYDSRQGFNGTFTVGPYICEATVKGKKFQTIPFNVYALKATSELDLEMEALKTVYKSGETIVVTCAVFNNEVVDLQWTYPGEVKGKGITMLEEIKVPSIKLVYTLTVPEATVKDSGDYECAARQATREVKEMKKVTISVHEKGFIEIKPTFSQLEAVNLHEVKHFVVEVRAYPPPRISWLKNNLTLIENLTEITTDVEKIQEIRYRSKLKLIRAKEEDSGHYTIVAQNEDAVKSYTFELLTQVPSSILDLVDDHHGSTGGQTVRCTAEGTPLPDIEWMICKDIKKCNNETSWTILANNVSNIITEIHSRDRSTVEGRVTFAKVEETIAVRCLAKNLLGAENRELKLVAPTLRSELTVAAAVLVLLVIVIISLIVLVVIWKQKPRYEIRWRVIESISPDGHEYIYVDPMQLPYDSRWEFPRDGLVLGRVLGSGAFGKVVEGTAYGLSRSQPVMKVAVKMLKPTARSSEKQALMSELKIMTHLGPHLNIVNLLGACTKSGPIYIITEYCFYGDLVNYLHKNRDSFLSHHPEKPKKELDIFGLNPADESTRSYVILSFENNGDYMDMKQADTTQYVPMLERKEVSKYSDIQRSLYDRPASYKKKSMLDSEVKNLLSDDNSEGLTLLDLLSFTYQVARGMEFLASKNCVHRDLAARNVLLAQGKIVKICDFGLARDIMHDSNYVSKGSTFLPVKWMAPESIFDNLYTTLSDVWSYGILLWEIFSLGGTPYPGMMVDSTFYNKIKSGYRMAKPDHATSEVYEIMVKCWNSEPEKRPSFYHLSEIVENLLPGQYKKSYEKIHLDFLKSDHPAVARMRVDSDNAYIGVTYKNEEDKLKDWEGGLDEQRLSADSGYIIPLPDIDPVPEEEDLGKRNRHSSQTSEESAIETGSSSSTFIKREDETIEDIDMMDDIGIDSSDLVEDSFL
# Procedure details: Inhibitory activity against PDGF-Ra phosphorylation by PDGF-AA stimulation using G292
# Type: cell-based
# Experimental parameters: > means inhibition at indicated concentration not more than 50%, < and << not less than 50%; read-out: PDGF (E) IC50

# Molecule, Unit tag, Limit sign, IC50
records = [
    ("COc1cc2ncnc(Oc3ccc(NC(=S)NCc4ccccc4)cc3)c2cc1OC", "nM", "=", 17),
    ("COc1cc2nccc(Oc3cc(C)c(NC(=S)NCCCN4CCOCC4)cc3C)c2cc1OC", "nM", ">", 100),
    ("COc1cccc(NCCOc2ccc(Oc3ccnc4cc(OC)c(OC)cc34)cc2)c1", "nM", "<", 10),
    ("COc1ccccc1CC(=O)NC(=S)Nc1ccc(Oc2ccnc3cc(OC)c(OC)cc23)c(Cl)c1", "nM", "=", 29),
    ("COc1cc2nccc(Oc3cc(C)c(NC(=O)OC(C#N)c4ccccc4)cc3C)c2cc1OC (centres unmarked)", "nM", ">", 100),
    ("COc1cc2nccc(Oc3ccc(NC(=S)NC(=O)C(C)Oc4ccccc4)cc3Cl)c2cc1OC (centres unmarked)", "nM", ">", 100),
    ("COc1cc2nccc(Oc3ccc(NC(=S)NC(=O)c4cccnc4)cc3)c2cc1OC", "nM", "<", 10),
    ("COc1cc2nccc(Oc3ccc(OCCCOc4c(C)cccc4C)cc3)c2cc1OC", "nM", "=", 14),
    ("COc1cc2ncnc(Oc3ccc(NC(=S)NC(=O)c4ccc(C)nc4)cc3)c2cc1OC", "nM", "=", 49),
    ("COc1cc2ncnc(Oc3ccc(NC(=S)NC(=O)Cc4cccc5ccccc45)cc3)c2cc1OC", "nM", "=", 19),
    ("COc1cc2nccc(Oc3ccc(NC(=S)NC(=O)CCC4CCCC4)cc3F)c2cc1OC", "nM", "=", 5),
    ("COc1cc2nccc(Oc3cc(C)c(NC(=O)NCCN4CCCCC4)cc3C)c2cc1OC", "nM", ">", 100),
    ("COc1cc2nccc(Oc3ccc(NC(=O)OCN4C(=O)c5ccccc5C4=O)c(C)c3C)c2cc1OC", "nM", "=", 26),
    ("COc1cc2ncnc(Oc3ccc(NC(=O)N[C@@H]4CCN(Cc5ccccc5)C4)c(Cl)c3)c2cc1OC", "nM", "=", 27),
    ("COc1cc2nccc(Oc3cc(C)c(NC(=O)OCCCN4CCCCC4)cc3C)c2cc1OC", "nM", ">", 100),
    ("CCN(CCNC(=O)Nc1cc(C)c(Oc2ccnc3cc(OC)c(OC)cc23)cc1C)c1cccc(C)c1", "nM", "=", 23),
    ("COc1cc2nccc(Oc3ccc(NCCCOc4ccccc4Cl)c(C)c3C)c2cc1OC", "nM", "=", 52),
    ("CCN(CCNC(=O)Nc1ccc(Oc2ccnc3cc(OC)c(OC)cc23)cc1Cl)c1cccc(C)c1", "nM", "=", 23),
    ("COc1cc2nccc(Oc3ccc(NC(=S)NC(=O)N4c5ccccc5CCc5ccccc54)cc3Cl)c2cc1OC", "nM", "=", 27),
    ("COc1cc2nccc(Oc3ccc(OCCCOc4ccc(C)cc4)cc3)c2cc1OC", "nM", "<", 3),
    ("CCCC(CCN1CCOCC1)OC(=O)Nc1ccc(Oc2ccnc3cc(OC)c(OC)cc23)cc1 (centres unmarked)", "nM", "=", 48),
    ("COc1cc2nccc(Oc3cc(C)c(NC(=S)NCCN4CCOCC4)cc3C)c2cc1OC", "nM", "=", 70),
    ("COc1cc2nccc(Oc3ccc(NC(=S)NC(=O)N(CCCl)CCCl)cc3)c2cc1OC", "nM", "=", 39),
    ("CCN(CC)CCCOC(=O)Nc1ccc(Oc2ccnc3cc(OC)c(OC)cc23)c(C)c1C", "nM", "=", 64),
    ("CCOC(=O)CCCC(=O)NC(=S)Nc1ccc(Oc2ncnc3cc(OC)c(OC)cc23)cc1", "nM", "=", 17),
    ("COc1cc2nccc(Oc3ccc(NC(=S)NC4CCN(Cc5ccccc5)CC4)c(C)c3C)c2cc1OC", "nM", ">", 100),
    ("COc1cc2nccc(Oc3cc(C)c(NC(=O)OCc4ccccn4)cc3C)c2cc1OC", "nM", "=", 76),
    ("COc1cc2ncnc(Oc3ccc(NC(=S)NC(=O)C(C)Oc4ccccc4Cl)cc3)c2cc1OC (centres unmarked)", "nM", "=", 28),
    ("COc1cc2nccc(Oc3ccc(NC(=S)NN4CCCCC4)c(C)c3C)c2cc1OC", "nM", ">", 100),
    ("COc1cc2ncnc(Oc3ccc(NC(=O)NC4CCN(Cc5ccccc5)CC4)c(Cl)c3)c2cc1OC", "nM", "=", 52),
    ("COc1cc2nccc(Oc3ccc(NC(=S)NC(=O)Cc4ccccc4)cc3)c2cc1OC", "nM", "=", 28),
    ("COc1cc2ncnc(Oc3ccc(NC(=O)NC4CC(C)(C)NC(C)(C)C4)cc3)c2cc1OC", "nM", "=", 54),
]

====

# Target: c-kit (Homo sapiens, UniProt P10721)
# Construct: MO7e (human megakaryocytic leukemia cell line) which had been arrested for 20 hr; endogenous in cells; host or cells: MO7e human megakaryocytic leukemia cell line
# Sequence (P10721 26-976): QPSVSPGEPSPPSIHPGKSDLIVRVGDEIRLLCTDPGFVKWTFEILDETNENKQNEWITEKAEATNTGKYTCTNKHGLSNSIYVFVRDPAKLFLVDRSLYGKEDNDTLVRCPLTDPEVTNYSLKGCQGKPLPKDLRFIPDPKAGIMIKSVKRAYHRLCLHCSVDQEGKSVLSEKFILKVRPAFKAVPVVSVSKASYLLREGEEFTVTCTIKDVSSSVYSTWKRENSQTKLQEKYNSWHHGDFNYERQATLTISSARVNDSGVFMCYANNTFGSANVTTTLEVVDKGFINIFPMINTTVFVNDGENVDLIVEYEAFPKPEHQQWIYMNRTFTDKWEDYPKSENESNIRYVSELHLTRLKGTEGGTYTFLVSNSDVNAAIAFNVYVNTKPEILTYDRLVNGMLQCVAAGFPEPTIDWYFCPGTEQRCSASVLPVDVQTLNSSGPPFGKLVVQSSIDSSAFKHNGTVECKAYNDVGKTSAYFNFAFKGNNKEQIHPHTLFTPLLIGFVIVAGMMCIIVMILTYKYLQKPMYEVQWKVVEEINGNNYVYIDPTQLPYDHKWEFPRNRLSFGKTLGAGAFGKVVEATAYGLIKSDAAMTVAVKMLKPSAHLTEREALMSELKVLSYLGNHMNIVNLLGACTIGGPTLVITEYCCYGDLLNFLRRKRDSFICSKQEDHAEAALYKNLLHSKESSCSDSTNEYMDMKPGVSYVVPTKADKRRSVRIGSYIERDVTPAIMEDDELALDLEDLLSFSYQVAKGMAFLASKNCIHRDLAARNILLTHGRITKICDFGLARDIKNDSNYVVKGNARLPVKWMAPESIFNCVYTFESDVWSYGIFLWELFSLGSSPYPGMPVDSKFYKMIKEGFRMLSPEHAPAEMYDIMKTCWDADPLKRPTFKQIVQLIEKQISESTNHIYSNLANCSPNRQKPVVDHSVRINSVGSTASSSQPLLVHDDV
# Procedure details: Inhibitory activity against c-kit autophosphorylation (MO7e cells, h-SCF)
# Type: cell-based
# Experimental parameters: MO7e cells, h-SCF 50 ng/ml; read-out: c-kit IC50
pIC50: −log10 of the molar value.
Measured pIC50 accompanies every entry in the list below.

# Compound, pIC50
measured = [
    ("COc1cc2ncnc(Oc3ccc(NC(=O)OCC4CCCCCC4)c(Cl)c3)c2cc1OC", 6.71),
    ("COc1cc2ncnc(Oc3ccc(NC(=O)OC(C)c4cccc(OC(F)(F)F)c4)cc3)c2cc1OC (stereo not shown)", 6.15),
    ("COc1cc2nccc(Oc3cc(C)c(NC(=O)OC(C)c4ccc(C)cc4)cc3C)c2cc1OC (stereo not shown)", 6.03),
    ("COc1cc2nccc(Oc3ccc(NC(=O)OCC4CCCCCC4)cc3)c2cc1OC", 7.05),
]

====

# Target: PDGF-Ra (Homo sapiens)
# Construct: host or cells: G-292 human osteosarcoma cells
# Procedure details: Inhibitory activity against PDGF-Ra phosphorylation by PDGF-AA stimulation using G292
# Assay type: cell-based
# Experimental parameters: Pharmacological Test Example 1; > means inhibition at indicated concentration not more than 50%, < and << not less than 50%; read-out: PDGF (E) IC50
pIC50: −log10 of the molar value.
pIC50 reference

# Compound, Limit sign, pIC50
data = [
    ("COc1cccc(OCCCOC(=O)Nc2ccc(Oc3ncnc4cc(OC)c(OC)cc34)cc2)c1 [Example 164]", "=", 7.92),
    ("CCCC(CCC)OC(=O)Nc1ccc(Oc2ccnc3cc(OC)c(OC)cc23)cc1", ">", 8.00),
    ("COc1ccc(OC)c(COC(=O)Nc2ccc(Oc3ncnc4cc(OC)c(OC)cc34)cc2)c1", ">", 8.00),
    ("COc1cc2nccc(Oc3cc(C)c(NC(=O)Oc4ccccc4C(C)(C)C)cc3C)c2cc1OC", "=", 7.37),
    ("COc1cc2nccc(Oc3ccc(NC(=O)Oc4ccccc4C(C)(C)C)cc3)c2cc1OC", ">", 8.00),
    ("COc1cccc(C(C)OC(=O)Nc2ccc(Oc3ccnc4cc(OC)c(OC)cc34)c(C)c2C)c1 (centres unmarked)", ">", 8.00),
    ("COc1cc2ncnc(Oc3ccc(NC(=O)OC(C)c4ccc(C)cc4)cc3)c2cc1OC (centres unmarked)", "=", 7.74),
    ("CCCCC(CC)OC(=O)Nc1ccc(Oc2ccnc3cc(OC)c(OC)cc23)c(C)c1C (centres unmarked)", ">", 8.00),
    ("COc1cc2nccc(Oc3ccc(NC(=O)Oc4ccc(-c5ccccc5)cc4)c(C)c3C)c2cc1OC", "=", 7.21),
    ("COc1cc2nccc(Oc3ccc(NC(=O)OCCSc4ccc(C)cc4)cc3)c2cc1OC", ">", 8.00),
    ("COc1cc2ncnc(Oc3ccc(NC(=O)OC(C)c4ccccc4F)c(Cl)c3)c2cc1OC (centres unmarked)", "=", 7.72),
    ("COc1cc2nccc(Oc3ccc(NC(=O)OCC4CCCC4)c(C)c3C)c2cc1OC", "=", 7.72),
    ("COc1cc2nccc(Oc3cc(C)c(NC(=O)OC(C)c4ccc(F)cc4)cc3C)c2cc1OC (centres unmarked)", "=", 7.60),
    ("COc1cc2ncnc(Oc3ccc(NC(=O)OC(C)c4cccc(C(F)(F)F)c4)cc3)c2cc1OC (centres unmarked)", ">", 8.00),
    ("COc1cc2nccc(Oc3cc(C)c(NC(=O)OCCCc4ccccc4)cc3C)c2cc1OC", "=", 7.68),
    ("COc1ccc(C(C)OC(=O)Nc2ccc(Oc3ncnc4cc(OC)c(OC)cc34)cc2Cl)cc1 (centres unmarked)", "<", 7.00),
    ("COc1ccccc1COC(=O)Nc1ccc(Oc2ncnc3cc(OC)c(OC)cc23)cc1Cl", "=", 8.00),
]
